The reported numbers originate from BindingDB's records for doi:10.1016/j.bmc.2015.05.058.

molecular target: Vesicular acetylcholine transporter (Homo sapiens, UniProt Q16572)
Sequence (Q16572 whole entry): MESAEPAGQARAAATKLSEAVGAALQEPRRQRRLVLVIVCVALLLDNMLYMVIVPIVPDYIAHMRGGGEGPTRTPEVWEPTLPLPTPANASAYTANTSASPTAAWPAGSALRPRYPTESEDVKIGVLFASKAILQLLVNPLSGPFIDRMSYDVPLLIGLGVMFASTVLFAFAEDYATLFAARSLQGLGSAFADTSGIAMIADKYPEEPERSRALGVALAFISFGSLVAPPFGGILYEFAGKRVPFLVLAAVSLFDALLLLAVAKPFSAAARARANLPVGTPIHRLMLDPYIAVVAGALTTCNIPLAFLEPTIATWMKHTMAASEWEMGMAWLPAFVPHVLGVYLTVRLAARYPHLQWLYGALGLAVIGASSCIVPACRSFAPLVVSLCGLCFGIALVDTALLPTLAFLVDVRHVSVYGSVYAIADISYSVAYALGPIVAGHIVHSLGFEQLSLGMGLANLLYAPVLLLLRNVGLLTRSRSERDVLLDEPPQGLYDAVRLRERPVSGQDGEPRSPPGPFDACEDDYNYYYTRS
measureName: Ki (nM)

INSERT INTO assay_data (compound, targetentity, unitssymbol, numericresult) VALUES
  ('O=C(c1ccc(F)cc1)C1CCN(C2Cc3c(cccc3OCCF)CC2O)CC1 (stereo unspecified)', 'Vesicular acetylcholine transporter (Homo sapiens, UniProt Q16572)', 'nM', 13);
